Sourced from patent US20110092544A1

Assignment: determine reported melting point for the given compounds.

STRUCTURE | melting point
CCOC(=O)c1cnc(C)c(-c2c(F)cc(F)cc2F)c1-c1cc(OC)cc(OC)c1 | 93 to 95 °C

List the reported melting point of each compound below.
1. COc1cc(OC)c(Cl)c(-c2c(CC#N)cnc(C)c2-c2c(F)cc(F)cc2F)c1
2. CCc1cnc(C)c(-c2c(F)cc(F)cc2F)c1-c1cc(OC)cc(OC)c1
3. COc1cc(OC)cc(-c2c(CC#N)cnc(C)c2-c2c(F)cc(F)cc2F)c1
4. COc1cc(OC)cc(-c2c(CCl)cnc(C)c2-c2c(F)cc(F)cc2F)c1
5. COc1cc(OC)cc(-c2c(C(C)(C)O)cnc(C)c2-c2c(F)cc(F)cc2F)c1
6. COc1cc(OC)cc(-c2c(-c3ccccc3F)cnc(C)c2-c2c(F)cc(F)cc2F)c1

["159 to 165 °C", "102 to 105 °C", "131 to 133 °C", "110 to 115 °C", "166 to 167 °C", "123 to 127 °C"]

---

Assignment: determine reported pest or weed control at 200 ppm for the given compounds.
Tested on: Septoria tritici
METHOD_DESCRIPTION: Test C: wheat leaf blotch, preventive spray on wheat seedlings, visual disease rating
Format: in vivo
ASSAY_CONDITIONS: Zymoseptoria tritici, 504 h, 200 ppm, 100 = 100% disease control, 0 = no control
Answers are plain numbers, in %.

STRUCTURE | STUDY_SYSTEM | MEASURED_PARAMETER | MEASURED_RESULT
COc1cc(OC)cc(-c2c(C(C)=O)cnc(C)c2-c2c(F)cc(F)cc2F)c1 | Septoria tritici | pest or weed control at 200 ppm | 87
CCOC(=O)c1cnc(C)c(-c2ccc(F)cc2)c1-c1cc(OC)cc(OC)c1 | Septoria tritici | pest or weed control at 200 ppm | 30
COc1cc(OC)cc(-c2c(C(C)(C)O)cnc(C)c2-c2ccc(F)cc2)c1 | Septoria tritici | pest or weed control at 200 ppm | 100

Alright, here's another compound for you.
What value of pest or weed control at 200 ppm has been recorded for this entry: COc1cc(OC)cc(-c2c(C(C)=O)cnc(C)c2-c2ccc(F)cc2)c1
92

---

System: Septoria nodorum
METHOD_DESCRIPTION: Test D: wheat glume blotch, preventive spray on wheat seedlings, visual disease rating
Type: in vivo
ASSAY_CONDITIONS: 200 ppm, 100 = 100% disease control, 0 = no control
Assignment: determine reported Test D rating (% disease control) for the given compounds.
Numbers only, in %.

List the reported Test D rating (% disease control) of each compound below.
1. COc1cc(OC)cc(-c2c(-c3ccc(F)cc3)cnc(C)c2-c2ccc(F)cc2F)c1
2. Cc1ncc(-c2ccccc2F)c(-c2cc(O)cc(O)c2)c1-c1ccc(F)cc1
3. COc1cc(OC)cc(-c2c(C(C)C)cnc(C)c2-c2ccccc2F)c1
4. COc1ccc(-c2c(C)ncc(C(C)(O)CO)c2-c2cc(OC)cc(OC)c2)cc1 (single isomer, unassigned) [Compound 85]
5. COc1ccc(-c2c(C)ncc(C(C)CO)c2-c2cc(OC)cc(OC)c2)cc1 (centres unmarked)
6. CCC(O)(CC)c1cnc(C)c(-c2c(F)cc(F)cc2F)c1-c1cc(OC)cc(OC)c1

1. 0
2. 0
3. 0
4. 0
5. 69
6. 0

List the reported Test D rating (% disease control) of each compound below.
1. C=C(C)c1cnc(C)c(-c2c(F)cc(F)cc2F)c1-c1cc(OC)cc(OC)c1
2. CCOC(=O)c1cnc(C)c(-c2c(F)ccc(F)c2F)c1-c1cc(OC)cc(OC)c1

[78, 0]
